Recorded values, source PubChem BioAssay (NCI).

Test system: HCT-116 colon
Test: NCI-60 one-dose screen, 48 h (100 = growth as untreated, 0 = no growth, -100 = all killed)
Experimental Conditions: 10 µM unless noted
Protocol: Growth inhibition of the HCT-116 human tumor cell line is measured as a screen for anti-cancer activity. Cells are grown in 96 well plates and exposed to the test compound for 48 hours. Compounds are tested at a single concentration, which is 10^-5 M for most compounds. The reported endpoint is percent growth (GI% or GIPRCNT), where numbers from 0 - 100% represent growth inhibition, and numbers from -100% - 0 represent cell death. For example, a value of 40 represents 60% growth inhibition. […]
Compounds without any hit were thinned out: in the full panel of roughly 83,000, 20% have a hit.
Recorded Metric: growth (%)
Give the value, in units of %, as a plain number.

Sample answers from the record:
INSERT INTO results (compound_smiles, result_number) VALUES
  ('CC(C)=CCC/C(C)=C/CC/C(C)=C/CC/C(C)=C/CSC[C@H](NC(=O)CCCCCN1CCN(C)CC1)C(=O)NC1CCCCC1', 6.51),
  ('Cc1cc(N2CCN(C)CC2)nc(N(CCNc2ccnc3cc(Cl)ccc23)Cc2ccco2)n1', 17.1),
  ('O=P(O)(c1ccccc1)c1ccccc1I', 76.7),
  ('O=C1/C(=C\c2ccc(Br)o2)SC(=S)N1CCc1ccc(O)cc1', 77.7),
  ('Nc1nc(N)c2nc3c(nc2n1)CCCCCCCCCC3', 21.4),
  ('CCOc1ccc(NC(=O)c2ccoc2COc2ccccc2)cc1', 93.6);

Query: Look up growth of `CC(=O)Oc1ccccc1C(=O)/C=C/c1cccc([N+](=O)[O-])c1` and report it.
Result: 10.8

Query: Return reported growth. Input compound: `CC(C)/C=C/CC[C@](C)(O)[C@H]1CC[C@]2(C)[C@@H]1CC[C@@H]1[C@@]3(C)C/C(=C/c4cccc(C(F)(F)F)c4)C(=O)C(C)(C)[C@@H]3CC[C@]12C`
Result: 76

Query: Check the records and state growth for `C=C(C)[C@@H]1CC[C@]2(CN)CC[C@]3(C)[C@H](CC[C@@H]4[C@@]5(C)CCC(=O)NC(C)(C)[C@@H]5CC[C@]43C)[C@@H]12`
Result: 11.7

* * *

System: OVCAR-3 ovarian
Test: NCI-60 one-dose screen, 48 h (100 = growth as untreated, 0 = no growth, -100 = all killed)
Experimental Conditions: 10 µM unless noted
The panel holds about 83,000 compounds, 20% with a hit somewhere; the sample as a whole holds those more often.
Listed here: items and their measured growth.
State the answer as a number, implicitly in %.

Query: Answer with the recorded growth of COc1ccc(C2CC(=O)c3c(nc4ccc(Cl)cc4c3N)C2)cc1 (centres undefined) only.
Result: 112

Query: Note down growth recorded for `Cn1c2c(Cl)c(Cl)ccc2c2c(C#N)c[nH]c(=O)c21`
Result: 110

Query: Please report the measured growth for Nc1c2c(nc3ccc(Cl)cc13)CC(c1ccccc1)CC2=O (centres undefined)
Result: 20.6

Query: Annotate the molecule `Cc1ccncc1C(=O)O` with its measured growth.
Result: 101

Query: Quote growth reported for `CCCCN1CCCCn2c1nc1c2c(=O)n(C)c(=O)n1C` please.
Result: 102

Query: Check the records and state growth for CC(=O)OC(C)COc1ccc(-c2ccccc2)cc1 (centres undefined)
Result: 107

Query: Name the recorded growth of the item `COc1ccc2c(c1)c1nc3cc(C)c(C)cc3nc1n2CCN(C)C` in your answer.
Result: 27.1

Query: Item `NCCNc1nc(-c2ccccc2)nc2nc(-c3ccccc3)oc12` : provide growth
Result: 88.2

* * *

Tested on: MDA-MB-231 breast
Test: NCI-60 one-dose screen, 48 h
Experimental Conditions: 10 µM unless noted
The panel holds about 83,000 compounds, 20% with a hit somewhere; the sample as a whole holds those more often. Calls of active or inactive are those of the source. The calls were made as follows: active = growth percent below 10; inactive = the rest.
// one of active, inactive, no free text

Please review the following examples before continuing.
INSERT INTO measurements (compound_smiles, class_assignment) VALUES
  ('CCc1nnc(NC(=O)c2ccoc2COc2ccccc2)s1', 'inactive'),
  ('N#C/C(=C\c1ccc(-c2ccccc2)o1)c1nc(-c2ccco2)cs1', 'inactive'),
  ('Nc1c(C(=O)Nc2cccc(Br)c2)sc2nc3c(cc12)C(=O)CCC3', 'inactive'),
  ('C=C(C)[C@@H]1CC[C@]2(C=NCCCNCCCCNCCCN)CC[C@]3(C)[C@H](CC[C@@H]4[C@@]5(C)CCCNC(C)(C)[C@@H]5CC[C@]43C)[C@@H]12', 'inactive'),
  ('O=C1CCC/C=C\C[C@H]2C=C(Cl)C(=O)/C2=C/C[C@H](CCCCC(F)(F)F)OC(=O)CCC/C=C\C[C@H]2C=C(Cl)C(=O)/C2=C/C[C@H](CCCCC(F)(F)F)O1', 'active'),
  ('CCN1CCN(c2nc(C)cc(N(CCCNc3ccnc4cc(Cl)ccc34)Cc3ccco3)n2)CC1', 'inactive'),
  ('N=C(N)N=Nc1ccc(O)cc1', 'inactive');

// next entry
Query: Record request — test call for `CC1(n2nnnc2N2CCCN(c3ncccc3N)CC2)CCC1`
Result: inactive

* * *

System: SK-MEL-28 melanoma
Test: NCI-60 one-dose screen, 48 h
Experimental Conditions: 10 µM unless noted
About 83,000 compounds went through this panel and 20% of them were active in at least one assay; those are over-represented in the sample as a whole. Activity calls are given as the source filed them. How the source made its calls: active means growth percent below 10; inactive means the rest.
Can you answer with just one of these options? active, inactive

INSERT INTO measurements (molecule, tested_system, class_assignment) VALUES
  ('O=C1OC(c2ccc(Cl)c(Cl)c2)=C/C1=C/c1cccc([N+](=O)[O-])c1', 'SK-MEL-28 melanoma', 'inactive'),
  ('O=C1Nc2ccccc2/C1=C/c1cn(CCCn2c3ccccc3c(=O)c3ccccc32)c2ccccc12', 'SK-MEL-28 melanoma', 'inactive'),
  ('Cc1ccc(/C=C(\C#N)c2cc3ccccc3n2C)cc1', 'SK-MEL-28 melanoma', 'inactive'),
  ('CCOc1ccc(NC(=O)c2ccccc2-c2ccccc2C(=O)O)cc1', 'SK-MEL-28 melanoma', 'inactive'),
  ('Cn1cc(-c2csc(-c3cn(CCN)c4ccc(F)cc34)n2)c2cccnc21', 'SK-MEL-28 melanoma', 'inactive'),
  ('O=C(O)c1cccc2c1-c1ccc(Cl)cc1C2', 'SK-MEL-28 melanoma', 'inactive');

Query: For `CC/C(=N/NC(N)=O)c1ccccc1` , which call appears in the assay record?
Result: inactive

Query: GET /call?item= `COc1ccc(-c2cc(/C=C/C(=O)c3ccc(OC)c(OC)c3)[nH]n2)cc1` returns the recorded outcome of this test.
Result: inactive

Query: Can you look up the reported call for CC(=O)NC1=C(C#N)C(c2ccccc2Cl)c2c(ccc3ccccc23)O1 (configuration not stated) for me?
Result: inactive

Query: Field: outcome | Entry: `COc1cc(-c2cc3ncccc3c3nc(OCCN(C)C)c4cccnc4c23)cc(OC)c1OC`
Result: inactive

Query: Any idea what this test logged for `O=C(/C=C/c1ccc2ccccc2c1)Nc1ncc(Cc2ccccc2)s1` ?
Result: inactive

Query: Outcome logged for `CCN1CCN(C(=O)[C@]23CCC(C)(C)C[C@@H]2C2=CC[C@@H]4[C@@]5(C)C/C(=C/c6cccnc6)C(=O)C(C)(C)[C@@H]5CC[C@@]4(C)[C@]2(C)CC3)CC1` in this assay:
Result: inactive

* * *

Test system: NCI-H322M lung
Test: NCI-60 one-dose screen, 48 h (100 = growth as untreated, 0 = no growth, -100 = all killed)
Experimental Conditions: 10 µM unless noted
About 83,000 compounds went through this panel and 20% of them were active in at least one assay; those are over-represented in the sample as a whole. Active and inactive are the calls of the source. How the source made its calls: active means growth percent below 10; inactive means the rest.
Recorded Metric: growth

Look over these answered cases.
INSERT INTO results (compound_smiles, result) VALUES
  ('CC(C)(C)CC(C)(C)c1ccc(OCCOCC[N+](C)(C)CC(=O)[O-])cc1', '111% (inactive)'),
  ('COc1cc2nc(Cl)nc(Nc3cccc(C(=O)/C=C/c4ccc(Br)cc4)c3)c2cc1OC', '95.1% (inactive)'),
  ('COc1cc(C(=O)/C=C/c2cc(-c3ccc4c(c3)OCO4)n[nH]2)cc(OC)c1OC', '19.3% (inactive)'),
  ('NC1=NN=C2N(N)C(=O)c3cnn(-c4ccccc4)c3N2c2nc(-c3ccccc3)cc(-c3ccccc3)c21', '103% (inactive)'),
  ('N=C(N)c1ccc(S(N)(=O)=O)cc1', '96.2% (inactive)');

Moving on to another molecule below.
Query: Fill in growth for record `Cn1cc(-c2csc(-c3c[nH]c4ccc(F)cc34)n2)c2cccnc21`
Result: 74.8% (inactive)

* * *

Tested on: SR leukemia
Test: NCI-60 one-dose screen, 48 h
Experimental Conditions: 10 µM unless noted
Compounds without any hit were thinned out: in the full panel of roughly 83,000, 20% have a hit. Calls of active or inactive are those of the source. How the source made its calls: active means growth percent below 10; inactive means the rest.
Result category, one only: label 1 = active, label 0 = inactive

Take a look at these entries with their results.
INSERT INTO results (compound_smiles, tested_system, class_assignment) VALUES
  ('CC/C=C\C[C@H]1CC=C2C(=O)C=C[C@@H]2CC=CCCCC(=O)O[C@@H](CCCCC)CC=C2C(=O)C=C[C@@H]2CC=CCCCC(=O)O[C@@H](CCCCC)CC=C2C(=O)C=C[C@@H]2CC=CCCCC(=O)O[C@@H](CCCCC)CC=C2C(=O)C=C[C@@H]2CC=CCCCC(=O)O1', 'SR leukemia', 'label 1'),
  ('COc1ccc2c(c1)c(-c1nc(-c3c[nH]c4ncccc34)cs1)cn2CCNC(=O)OC(C)(C)C', 'SR leukemia', 'label 0'),
  ('O=C(/C=C/c1cccc(O)c1)c1ccccc1O', 'SR leukemia', 'label 0'),
  ('Cc1cc2nc3c4cc(Cl)ccc4n(CCN(C)C)c3nc2cc1C', 'SR leukemia', 'label 1'),
  ('Nc1ccc(Cl)cn1', 'SR leukemia', 'label 0'),
  ('COc1ccc2c(c1)c(-c1nc(-c3cn(C)c4ncccc34)cs1)cn2CCCN1CCCCC1', 'SR leukemia', 'label 1');

Next:
Query: Give the logged outcome of this assay for the following compound: `C/C(=N/NC(N)=S)C(=O)O`
Result: label 0
